Let's look at some pIC50 data for Somatostatin receptor type 2 (Homo sapiens) that I collected from the literature.
pIC50: −log10 of the molar value.
VALUE_TYPE: pIC50

CN(C(=O)CO)[C@H]1NC(=O)[C@H](CCCCN)NC(=O)[C@@H](Cc2c[nH]c3ccccc23)NC(=O)[C@H](Cc2ccccc2)NC(=O)[C@H](Cc2ccccc2)NC(=O)[C@@H](N)CSSC[C@@H](C(=O)O)NC(=O)[C@H](Cc2ccccc2)NC1=O (stereo in doubt; 20) | < 6.00
CC(C)NCc1ccc(C[C@@H]2NC(=O)[C@@H](Cc3ccc4ccccc4c3)NC(=O)[C@H](Cc3ccccc3)NC(=O)[C@H](Cc3ccccc3)NC(=O)[C@H](CCCCN)NC(=O)[C@@H](N)CSSC[C@@H](C(=O)O)NC(=O)[C@H](CO)NC(=O)[C@H]([C@@H](C)O)N(C)C(=O)[C@H](Cc3ccccc3)NC(=O)[C@H]([C@@H](C)O)NC2=O)cc1 | < 6.00
CC(C)NCc1ccc(C[C@@H]2NC(=O)[C@@H](Cc3c[nH]c4ccccc34)NC(=O)[C@@H]3CCC(=O)NCCCCC[C@@H](NC(=O)[C@H](Cc4ccccc4)NC(=O)[C@H]([C@@H](C)O)NC2=O)C(=O)N[C@@H](CO)C(=O)N[C@H](C(=O)O)CSSC[C@H](NC(=O)[C@@H](N)Cc2ccc(O)cc2)C(=O)N[C@@H](CCCCN)C(=O)N[C@@H](Cc2ccccc2)C(=O)N3)cc1 | < 6.00
CC(C)NCc1ccc(C[C@@H]2NC(=O)[C@@H](Cc3c[nH]c4ccccc34)NC(=O)[C@H](Cc3ccccc3)NC(=O)[C@H](Cc3ccccc3)NC(=O)[C@H](CCCCN)NC(=O)[C@@H](N)CSSC[C@@H](C(=O)O)N(C)C(=O)[C@H](CO)NC(=O)[C@H]([C@@H](C)O)NC(=O)[C@H](Cc3ccccc3)NC(=O)[C@H]([C@@H](C)O)NC2=O)cc1 | < 6.00
CC(C)NCc1ccc(C[C@@H]2NC(=O)[C@@H](Cc3c[nH]c4ccccc34)NC(=O)[C@@H]3CCC(=O)NCCCC[C@H](NC(=O)[C@H]([C@@H](C)O)NC2=O)C(=O)N[C@@H]([C@@H](C)O)C(=O)N[C@@H](CO)C(=O)N[C@H](C(=O)O)CSSC[C@H](NC(=O)[C@@H](N)Cc2ccc(O)cc2)C(=O)N[C@@H](CCCCN)C(=O)N[C@@H](Cc2ccccc2)C(=O)N3)cc1 | < 6.00
CC(C)NCc1ccc(C[C@@H]2NC(=O)[C@@H](Cc3ccc4ccccc4c3)NC(=O)[C@H](Cc3ccccc3)NC(=O)[C@H](Cc3ccccc3)NC(=O)[C@H](CCCCN)NC(=O)[C@@H](N)CSSC[C@@H](C(=O)O)N(C)C(=O)[C@H](CO)NC(=O)[C@H]([C@@H](C)O)NC(=O)[C@H](Cc3ccccc3)NC(=O)[C@H]([C@@H](C)O)NC2=O)cc1 | < 6.00
C[C@@H](O)[C@@H]1NC(=O)[C@H](Cc2ccccc2)NC(=O)[C@H]([C@@H](C)O)NC(=O)[C@H](Cc2ccc(CN)cc2)NC(=O)[C@@H](Cc2ccc3ccccc3c2)NC(=O)[C@H](Cc2ccccc2)NC(=O)[C@H](Cc2ccccc2)NC(=O)[C@H](CCCCN)NC(=O)[C@@H](N)CSSC[C@@H](C(=O)O)NC(=O)[C@H](CO)NC1=O | 6.46
C[C@@H](O)[C@@H]1NC(=O)[C@H](CCCCN)NC(=O)[C@@H](Cc2c[nH]c3ccccc23)NC(=O)[C@H](Cc2ccccc2)NC(=O)[C@@H](NC(=O)[C@H](N)Cc2ccccc2)C/C=C\C[C@@H](C(=O)N[C@H](CO)[C@@H](C)O)NC1=O | 7.36
C[C@@H](O)[C@@H]1NC(=O)[C@H](CCCCN)NC(=O)[C@@H](Cc2c[nH]c3ccccc23)NC(=O)N(C)[C@@H](C(=O)c2ccccc2)NC(=O)[C@H](Cc2ccccc2)NC(=O)[C@@H](N)CSSC[C@@H](C(=O)O)NC(=O)[C@H](Cc2ccccc2)NC1=O (stereo in doubt) | 6.34
CC(C)NCc1ccc(C[C@@H]2NC(=O)[C@@H](Cc3c[nH]c4ccccc34)NC(=O)[C@@H]3CCC(=O)NCCCC(=O)NCCC[C@H](NC(=O)[C@H](Cc4ccccc4)NC(=O)[C@H]([C@@H](C)O)NC2=O)C(=O)N[C@@H](CO)C(=O)N[C@H](C(=O)O)CSSC[C@H](NC(=O)[C@@H](N)Cc2ccc(O)cc2)C(=O)N[C@@H](CCCCN)C(=O)N[C@@H](Cc2ccccc2)C(=O)N3)cc1 | < 6.00

* * *

Let's look at some IC50 data for Somatostatin receptor type 2 (Homo sapiens, UniProt P30874) that I collected from the literature.
VALUE_TYPE: IC50 (nM)

C[C@@H](O)[C@@H]1NC(=O)[C@H](CCCCN)NC(=O)[C@@H](Cc2c[nH]c3ccccc23)NC(=O)[C@H](Cc2ccccc2)NC(=O)[C@@H](NC(=O)[C@H](N)Cc2ccccc2)CCCC[C@@H](C(=O)N[C@H](CO)[C@@H](C)O)NC1=O | 49
CNCc1ccc(C[C@@H]2NC(=O)[C@@H](Cc3ccc4ccccc4c3)NC(=O)[C@H](Cc3ccccc3)NC(=O)[C@H](Cc3ccccc3)NC(=O)[C@H](CCCCN)NC(=O)[C@@H](N)CSSC[C@@H](C(=O)O)NC(=O)[C@H](CO)NC(=O)[C@H]([C@@H](C)O)NC(=O)[C@H](Cc3ccccc3)NC(=O)[C@H]([C@@H](C)O)NC2=O)cc1 | 556
C[C@@H](O)[C@@H]1NC(=O)[C@H](CCCCN)NC(=O)[C@@H](Cc2c[nH]c3ccccc23)NC(=O)[C@H](Cc2ccccc2)NC(=O)[C@H](Cc2ccccc2)NC(=O)[C@@H](N)CSSC[C@@H](C(=O)O)NC(=O)[C@H](N(C)C(=O)c2ccccc2)NC1=O | 455
C[C@H](c1ccc2ccccc2c1)[C@@H]1NC(=O)[C@H](Cc2ccc(O)cc2)NC(=O)[C@H](Cc2ccccc2)NC(=O)[C@H](N)CSSC[C@@H](C(=O)O)NC(=O)[C@H](Cc2ccccc2)NC(=O)[C@H]([C@@H](C)O)NC(=O)[C@H](CCCCN)NC1=O | 30

* * *

Let's look at some IC50 data for Somatostatin receptor type 2 (Homo sapiens, UniProt P30874) that I collected from the literature.
VALUE_TYPE: IC50 (nM)

CC(C)[C@@H]1NC(=O)[C@H](CCCCN)NC(=O)[C@@H](Cc2c[nH]c3ccccc23)N(C)C(=O)[C@H](Cc2ccc(O)cc2)NC(=O)[C@H](C)N(C)C(=O)[C@H](Cc2ccccc2)N(C)C1=O | 45
C[C@@H](O)[C@@H]1NC(=O)[C@H](CCCCN)NC(=O)[C@@H](Cc2c[nH]c3ccccc23)NC(=O)[C@H](Cc2ccc(O)cc2)NC(=O)[C@H](Cc2ccccc2)NC(=O)[C@@H](N)CSSC[C@@H](C(=O)O)NC(=O)[C@H](Cc2ccccc2)NC1=O | 25.7
C[C@@H](O)[C@@H]1NC(=O)[C@H](CCCCN)NC(=O)[C@@H](Cc2c[nH]c3ccccc23)NC(=O)[C@H](Cc2ccc(NC(N)=O)cc2)NC(=O)[C@H](NC(=O)[C@@H](N)Cc2ccc(Cl)cc2)CSSC[C@@H](C(=O)N[C@@H](Cc2ccc(NC(=O)[C@@H]3CC(=O)NC(=O)N3)cc2)C(N)=O)NC1=O | 27

* * *

Let's look at some IC50 data for Somatostatin receptor type 2 (Homo sapiens, UniProt P30874) that I collected from the literature.
VALUE_TYPE: IC50

NCCCC[C@H]1NC(=O)[C@@H](Cc2c[nH]c3ccccc23)SCCN(Cc2cccc3ccccc23)C1=O | 1590 nM
CC(C)NCc1ccc(C[C@@H]2NC(=O)[C@@H](Cc3ccc4ccccc4c3)N(C)C(=O)[C@H](Cc3ccccc3)NC(=O)[C@H](Cc3ccccc3)NC(=O)[C@H](CCCCN)NC(=O)[C@@H](N)CSSC[C@@H](C(=O)O)NC(=O)[C@H](CO)NC(=O)[C@H]([C@@H](C)O)NC(=O)[C@H](Cc3ccccc3)NC(=O)[C@H]([C@@H](C)O)NC2=O)cc1 | > 1000 nM
C[C@@H](O)[C@@H]1NC(=O)[C@H](CCCCN)NC(=O)[C@H](Cc2c[nH]c3ccccc23)NC(=O)[C@H](Cc2ccc(N)cc2)NC(=O)[C@H](Cc2ccccc2)NC(=O)[C@@H](NC(=O)[C@H](Cc2ccc(O)c(I)c2)NC(N)=O)CSSC[C@@H](C(=O)O)NC(=O)[C@H](Cc2ccccc2)NC1=O | > 1000 nM
C[C@@H](O)[C@@H]1NC(=O)[C@H](CCCCN)NC(=O)[C@@H](Cc2c[nH]c3ccccc23)NC(=O)[C@H](Cc2ccccc2)NC(=O)[C@H](N(C)C(=O)c2ccccc2)NC(=O)[C@@H](N)CSSC[C@@H](C(=O)O)NC(=O)[C@H](Cc2ccccc2)NC1=O (stereo in doubt; 5) | > 1000 nM
